tgt: Homeobox protein Hox-A13 (Mus musculus)
assay-comment: disruptors of Hoxa13 oligonucleotide interaction – biochemical, fluorescence polarization, labeled oligonucleotide, primary screen (AID 1185)
setup-conditions: Hoxa13:DNA binding, 15 min, higher = more signal, called active from +8 up or from −8 down
Heads up, the class ranges for z-score are lower (below -5), middle (-5 to below -2), upper (-2 or more)

1. C=C(COC)C(=O)CC[C@H](OC(=O)c1ccccc1-c1ccccc1C(=O)O)c1ccc(CO)o1 | lower
2. COc1cc(C(O)C2C=CC3C(=O)NC(=O)C3N2Nc2ccc(Cl)cc2Cl)cc(OC)c1OC (stereo not given) | lower
3. CCCCC(O)C1C=CC2C(=O)N(Cc3ccccc3)C(=O)C2N1n1cnnc1 (stereo not given) | upper
4. COc1ccc([Si](C)(C)[C@@H]2[C@@H](CC(=O)N(CCO)Cc3ccccc3)O[C@]3(C(=O)N(C)c4c(Br)cc(C)cc43)[C@H]2C)cc1 | lower
5. O=C(O)[C@]1(CCS(=O)(=O)c2ccccc2)N=C(c2ccc(OCCCO)cc2)O[C@@H]1c1ccccc1 | middle

Form field 'band' for C=CCNC(=O)[C@H]1[C@@H]2C(=O)O[C@@H](c3ccccc3)[C@@H](c3ccccc3)N2[C@@H](c2ccc(O)cc2)[C@]12C(=O)N(C(=O)OCCOC)c1ccc(C#CC3(O)CCCCCC3)cc12
middle

Form field 'band' for COC(=O)[C@@]1(Cc2ccc(F)cc2)[C@H]2c3cc(C(=O)N(C)C)n(Cc4ccc(C)c(F)c4F)c3C[C@H]2CN1C(=O)c1ccccc1
middle

Form field 'band' for COCCCNC(=O)[C@@H]1c2ccccc2C(=O)N(Cc2cc(F)cc(C(F)(F)F)c2)[C@H]1c1ccc(CO)cc1
middle

Form field 'band' for COC(=O)c1ccc(OC)c(/C=C\CC(CCc2ccccc2)OC(C)=O)c1 (stereo not given)
upper

Form field 'band' for Cc1ccc(N2C(=O)c3ccccc3[C@](C)(C(=O)NC(C)C)[C@@H]2c2ccc(CO)cc2)nc1
upper

Form field 'band' for CCCC[C@H]1OB(O)C[C@H]2C1=C(COc1ccccc1)Cn1c(=O)n(-c3ccccc3)c(=O)n12
lower

Form field 'band' for CCCN1C(=O)[C@@]2(Cc3ccccc3)N=C(c3ccc(OCCCO)cc3)O[C@H]2c2ccccc21
middle

Form field 'band' for CCOC(=O)C[C@H]1[C@H](OC(=O)c2ccccc2-c2ccccc2)[C@@H](NC(=O)c2ccccc2)c2cc(OCCCO)ccc2N1C(=O)Cc1ccc(OC)cc1
middle

Form field 'band' for C[N+](C)(C)CCCC[C@@H]1NC(=O)[C@H]2C[C@@H](C(=O)NCCCCCCN)[C@@H](c3cccc(OCCO)c3)N2C1=O
middle
